Each entry below carries its reported Relative cell viability (%).
# Tested on: HT29
# run-parameters: 72 h, relative to DMSO; 10 µM
Structures can show the parent of a compound that is named as a salt.
measure: Relative cell viability (%)

| compound | target-entity | result |
| --- | --- | --- |
| CC[C@@]1(O)C(=O)OCc2c1cc1n(c2=O)Cc2cc3c(CN(C)C)c(O)ccc3nc2-1 [Topotecan HCl] | HT29 | 16.67% |
| CC(C)(C)c1nc(-c2cccc(NS(=O)(=O)c3c(F)cccc3F)c2F)c(-c2ccnc(N)n2)s1 | HT29 | 37.38% |
| CC(CCc1ccccc1)NCC(O)c1ccc(O)c(C(N)=O)c1 (stereo not shown) [Labetalol HCl] | HT29 | 55.76% |
| COC(=O)C1=C(C)NC(C)=C(C(=O)OCC(C)C)C1c1ccccc1[N+](=O)[O-] (stereo not shown) | HT29 | 56.36% |
